- system name: DPPI (Homo sapiens)
- Sequence (P53634 231-394 limits assumed): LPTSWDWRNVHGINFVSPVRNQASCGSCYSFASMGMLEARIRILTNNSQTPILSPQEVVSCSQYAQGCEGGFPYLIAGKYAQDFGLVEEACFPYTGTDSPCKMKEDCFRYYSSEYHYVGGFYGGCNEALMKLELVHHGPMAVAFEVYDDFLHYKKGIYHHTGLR
- Sequence (P53634 25-134 limits assumed): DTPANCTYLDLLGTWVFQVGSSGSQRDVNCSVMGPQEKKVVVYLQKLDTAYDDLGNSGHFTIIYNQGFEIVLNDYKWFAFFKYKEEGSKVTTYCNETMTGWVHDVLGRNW
- Sequence (P53634 395-463 limits assumed): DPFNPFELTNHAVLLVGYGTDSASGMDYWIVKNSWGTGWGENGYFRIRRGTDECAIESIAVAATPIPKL
- protocol details: Substrate specificity of human DPPI: hydrolysis of synthetic peptide substrates
- Format: biochemical
- Set-up: Human DPPI is now established to constitute a 200,000 Da glycoprotein with 24,000 Da subunits; from tissue; host or cells: human cadaveric spleen; unit not given here
- measurement context: substrate concentration 100 μM
Where a SMILES comes first, the peptide text is derived from it. The star is where a group is joined. pNA = O=[N+]([O-])c1ccc(N*)cc1; βNA = c1ccc2cc(N*)ccc2c1
measure name: hydrolysis of substrate peptide by human DPPI

Solved cases (5 shown):
molecule=COc1cc(NC(=O)[C@@H]2CCCN2C(=O)CN)cc2ccccc12 value_observed=0
molecule=CC(C)C[C@H](N)C(=O)Nc1ccc2ccccc2c1 value_observed=0
molecule="N=C(N)NCCC[C@H](NC(=O)[C@@H](N)CCCNC(=N)N)C(=O)Nc1ccc2ccccc2c1 [Arg-Arg-βNA] (H-Arg-Arg-βNA)" value_observed=0
molecule="NCC(=O)N1CCC[C@H]1C(=O)Nc1ccc2ccccc2c1 [Gly-Pro-βNA] (H-Gly-Pro-βNA)" value_observed=0
molecule="N[C@@H](CO)C(=O)N[C@@H](Cc1ccc(O)cc1)C(=O)Nc1ccc2ccccc2c1 [Ser-Tyr-βNA] (H-Ser-Tyr-βNA)" value_observed=1750

[A] CC(N)C(=O)NC(C)C(=O)NC(C(=O)NC(C)C(=O)Nc1ccc([N+](=O)[O-])cc1)C(C)C (stereo not drawn) [Ala-Ala-Val-Ala-pNA] (H-AAVA-pNA; configuration not given here)
[B] N=C(N)NCCCC(NC(=O)OCc1ccccc1)C(=O)Nc1ccc2ccccc2c1 (stereo not shown)
Enquiry: In the pair A and B , the larger recorded hydrolysis of substrate peptide by human DPPI belongs to which? When you have decided, please share the label of that item.
Return: A
(A: 120, B: 0)
